Where these numbers come from: patent US20240174603A1

- System: LNCaP cells
- test_protocol: LNCaP cell viability assay (MTS)
- Format: cell-based
- setup_conditions: Homo sapiens, LNCaP, 48 h, LNCaP cell line
endpoint_label: GI50 (µM)

See these solved cases before continuing.
>  <compound>
CCCC(NS(=O)(=O)c1ccc(OC(F)(F)F)cc1)C(=O)N(C)C1CCCCCC1 (centres unmarked)

>  <observed_result>
54

$$$$
>  <compound>
CN(C)CC(NS(=O)(=O)c1ccc(C(F)(F)F)cc1)c1ccc(Cl)c(Cl)c1 (centres unmarked)

>  <observed_result>
25.4

$$$$

P. CS(=O)(=O)c1cc(CNS(=O)(=O)c2ccc(OC(F)(F)F)cc2)cc(C(F)(F)F)c1
Q. O=S(=O)(NCC1(c2ccc(Cl)cc2)CCC1)c1ccc(OC(F)(F)F)cc1
Kindly identify which of P and Q has the larger recorded GI50 value. Refer to your chosen entry by its label in the reply. P
(P: 64 µM, Q: 42.5 µM)

I. CC(C)c1ccc(C(CC(=O)O)NS(=O)(=O)c2ccc(OC(F)(F)F)cc2)cc1 (centres unmarked)
II. CC(C)CC(NS(=O)(=O)c1ccc(OC(F)(F)F)cc1)c1cccc(C#N)c1 (centres unmarked)
III. CN(C)CC(NS(=O)(=O)c1ccc(NC2CCCCC2)cc1)c1ccc(Cl)c(Cl)c1 (centres unmarked)
Sort (3 compounds) by GI50: min first. To answer, arrange all of the labels according to the requested order. III, II, I

P. CNS(=O)(=NC(CN(C)C)c1ccc(Cl)c(Cl)c1)c1ccc(OC(F)(F)F)cc1 (centres unmarked)
Q. CN(C)CC(NS(=O)(=O)c1ccc(Oc2cccc(F)c2)cc1)c1ccc(Cl)c(Cl)c1 (centres unmarked)
Higher GI50: P or Q ? Lab log: write the label of the selected item as the result. P
(P: 51.9 µM, Q: 21.1 µM)

A. CN(C)CC(NS(=O)(=O)CCc1ccccc1)c1ccc(Cl)c(Cl)c1 (centres unmarked)
B. CN(C)CC(NS(=O)(=O)C1CCCCC1)c1ccc(Cl)c(Cl)c1 (centres unmarked)
C. CN(C)CC(NS(=O)(=O)c1ccc(OC(F)(F)F)c(Cl)c1)c1ccc(Cl)cc1 (centres unmarked)
D. CC(NS(=O)(=O)c1ccc(OC(F)(F)F)cc1)C(NC(=O)OC(C)(C)C)c1ccccc1 (centres unmarked)
Endpoint returns the given compounds ordered by ascending GI50. Enter labels, ranked according to the request. C, A, D, B

----------
- Test system: LNCaP cells
- test_protocol: LNCaP cell viability assay (MTS)
- Assay type: cell-based
- setup_conditions: LNCaP cell line, 48 hours
endpoint_label: GI50 (µM)

>  <compound>
CN(C)C[C@@H](NS(=O)(=O)c1ccc(OC(F)(F)F)c([N+](=O)[O-])c1)c1ccc(Cl)c(Cl)c1 (single isomer, unassigned)

>  <observed_result>
1.14

$$$$
>  <compound>
CN(C)CC(NS(=O)(=O)c1ccc(Oc2ccc(C(F)(F)F)cc2)cc1)c1ccc(Cl)c(Cl)c1 (single isomer, unassigned) [Compound 173]

>  <observed_result>
13

$$$$

P. CN(C)CC(NS(=O)(=O)c1cccc(-c2ccccc2)c1)c1ccc(Cl)c(Cl)c1 (single isomer, unassigned)
Q. CN(C)CC(NS(=O)(=O)c1ccc(OC(F)(F)F)cc1)c1ccc(Cl)c(Cl)c1 (single isomer, unassigned)
Lab note: record which item had the higher GI50, P or Q . Write down the label attached to your selection. Q

----------
- Tested on: LNCaP cells
- test_protocol: LNCaP cell viability assay (MTS)
- Type: cell-based
- setup_conditions: Homo sapiens, LNCaP, 48 h, LNCaP cell line
endpoint_label: GI50 (µM)

Illustrative cases are given below, each with its answer.
>  <compound>
O=S(=O)(NCc1cc(Cl)ccc1OC(F)F)c1ccc(OC(F)(F)F)cc1

>  <GI50 (µM)>
70

$$$$
>  <compound>
O=S(=O)(NCC1(c2ccc(Cl)c(Cl)c2)CCCC1)c1ccc(OC(F)(F)F)cc1

>  <GI50 (µM)>
51.7

$$$$
>  <compound>
CC(C)(C)OC(=O)NCC(NS(=O)(=O)c1ccc(OC(F)(F)F)cc1)c1ccc(Cl)c(Cl)c1 (centres unmarked)

>  <GI50 (µM)>
15.9

$$$$
>  <compound>
CCCCN(CCNS(=O)(=O)c1ccc(OC(F)(F)F)cc1)Cc1cccc(Cl)c1

>  <GI50 (µM)>
33

$$$$
>  <compound>
CN(C)CC(NS(=O)(=O)c1ccc(C(F)(F)F)c([N+](=O)[O-])c1)c1ccc(Cl)c(Cl)c1 (centres unmarked)

>  <GI50 (µM)>
41.9

$$$$
>  <compound>
O=S(=O)(NC(CC1CC1)c1ccc(F)cc1Br)c1ccc(OC(F)(F)F)cc1 (single isomer, unassigned) [Compound 142a]

>  <GI50 (µM)>
80

$$$$
>  <compound>
CN(C)CC(NS(=O)(=O)c1cccc(C(F)(F)F)c1)c1ccc(Cl)c(Cl)c1 (centres unmarked)

>  <GI50 (µM)>
52.7

$$$$
>  <compound>
CCC[C@@H](NS(=O)(=O)c1ccc(OC(F)(F)F)cc1)c1ccc2c(c1)OCO2

>  <GI50 (µM)>
38

$$$$
>  <compound>
CN(C)C[C@@H](Cc1ccc(Cl)c(Cl)c1)NS(=O)(=O)c1ccc(OC(F)(F)F)cc1

>  <GI50 (µM)>
23.8

$$$$
>  <compound>
CN(C)CC(NS(=O)(=O)c1ccc(OC(F)(F)F)c(Cl)c1)c1ccc(Cl)c(Cl)c1 (centres unmarked) [Compound 152]

>  <GI50 (µM)>
12.1

$$$$

1. CC(CC1CCCCN1C)NS(=O)(=O)c1ccc(OC(F)(F)F)cc1 (centres unmarked)
2. CCCCc1ccc(S(=O)(=O)NC(CN(C)C)c2ccc(Cl)c(Cl)c2)cc1 (centres unmarked)
3. CN(C)C[C@@H](NS(=O)(=O)c1ccc(OC(F)(F)F)c([N+](=O)[O-])c1)c1ccc(Cl)c(Cl)c1 (single isomer, unassigned)
4. CCOC(=O)CC(NS(=O)(=O)c1ccc(OC(F)(F)F)cc1)c1ccc(OC(C)C)c(OC)c1 (centres unmarked)
5. CN(C)CC(NS(=O)(=O)c1ccc(OCC2CC2)cc1)c1ccc(Cl)c(Cl)c1 (centres unmarked)
# rank_down: sort by GI50, max first List the labels in the requested order. 4, 1, 5, 2, 3
(4: 72 µM, 1: 34 µM, 5: 21.8 µM, 2: 11.3 µM, 3: 1.4 µM)

----------
- System: LNCaP cells
- test_protocol: LNCaP cell viability assay (MTS)
- Type: cell-based
- setup_conditions: Homo sapiens, LNCaP, 48 h, LNCaP cell line
endpoint_label: GI50 (µM)

The examples below pair each entry with its known result.
>  <compound>
CC(C)(C)OC(=O)N1CC(F)(F)CC1CNS(=O)(=O)c1ccc(OC(F)(F)F)cc1 (stereo not drawn)

>  <target>
LNCaP cells

>  <observed_result>
43

$$$$
>  <compound>
CCOC(=O)CC(NS(=O)(=O)c1ccc(OC(F)(F)F)cc1)c1ccc(OCC)cc1 (stereo not drawn)

>  <target>
LNCaP cells

>  <observed_result>
75.6

$$$$

P. CN(C)CC(NS(=O)(=O)c1ccc(OC(F)(F)F)cc1)c1ccc(Cl)cc1 (single isomer, unassigned) [Compound 179]
Q. CN(C)CC(NS(=O)(=O)c1ccc(F)cc1)c1ccc(Cl)c(Cl)c1 (stereo not drawn)
Pick one, P or Q : lowest reported GI50. Lab log: write the label of the selected item as the result. P

A. Cc1ccccc1C(NS(=O)(=O)c1ccc(OC(F)(F)F)cc1)C1CCCC(C)C1 (stereo not drawn)
B. CN(C)CC(NS(=O)(=O)c1ccc(OC(F)F)cc1)c1ccc(Cl)c(Cl)c1 (stereo not drawn)
C. CC(C)Oc1ccc(S(=O)(=O)NC(CN(C)C)c2ccc(Cl)c(Cl)c2)cc1 (stereo not drawn)
D. CCOC(=O)C(CC(C)CC)NS(=O)(=O)c1ccc(OC(F)(F)F)cc1 (stereo not drawn)
E. CN(C)CC(NS(=O)(=O)c1ccc(C2=CCOCC2)cc1)c1ccc(Cl)c(Cl)c1 (stereo not drawn)
Hey, quick one: sort these by GI50, largest value first please. List the labels in the requested order. D, B, C, A, E
(D: 70 µM, B: 45.7 µM, C: 25.4 µM, A: 14 µM, E: 8.18 µM)

a. CC[C@H](NS(=O)(=O)c1ccc(OC(F)(F)F)cc1)c1cc(F)ccc1F
b. CC(C)CN(CCNS(=O)(=O)c1ccc(OC(F)(F)F)cc1)CC(C)C
Smaller GI50 value? Options are a and b Write the label of whichever entry you select. a
(a: 35 µM, b: 60 µM)

a. O=S(=O)(NCCCN(Cc1ccco1)CC1CCCO1)c1ccc(OC(F)(F)F)cc1 (stereo not drawn)
b. CN(C)CC(NS(=O)(=O)c1ccc(OC(F)(F)F)c(C#N)c1)c1ccc(Cl)c(Cl)c1 (stereo not drawn)
Larger number for GI50: a , or b ? Kindly state the label of the option you pick. a
(a: 49 µM, b: 24.6 µM)
